Origin of values: patent US8283358B2

// values below are reported pIC50
MEASURED_TARGET: gamma-secretase (partially purified extract of IMR-32 cell membranes; substrate MBP-C125 Swe fusion protein, cleavage at the Aβ40 site) (Homo sapiens, UniProt P49768)
Construct: a partially purified extract of IMR-32 cell membranes as the gamma-secretase enzyme preparation; endogenous in cells; host or cells: IMR-32 cell membranes, partially purified extract
ASSAY_EXPLANATION: Gamma-secretase APP enzyme assay (Example A)
Assay type: biochemical
CONDITIONS: class symbols; assay described in Example A; read-out: γAPP IC50
pIC50: −log10 of the molar value.

Solved cases (3 shown):
# MOLECULE, pIC50
records = [
    ("O=C1c2[nH]ncc2C2c3cccc(F)c3C1N2S(=O)(=O)c1ccc(C(F)(F)F)nc1 (single isomer, unassigned) [compound 192]", "> 7.00"),
    ("O=S(=O)(c1ccc(C(F)(F)F)cc1)N1C2Cc3[nH]ncc3C1c1cccnc12 (single isomer, unassigned) [compound 99]", "< 6.00"),
    ("O=S(=O)(c1ccc(C(F)(F)F)nc1)N1[C@@H]2c3cn[nH]c3[C@H](F)[C@H]1c1cccc(F)c12", "< 6.00"),
]

Value lookup for pIC50; key = O=S(=O)(c1ccc(C(F)(F)F)cc1)N1C2Cc3ccccc3C1c1cn[nH]c1C2 (racemic)
> 7.00
